Assay: self-splicing fitness, log relative to wild type (ln ratio); higher = more splicing; Tetrahymena group I intron in knt gene, E. coli kanamycin selection, DiMSum; sequences stand for … in CUCUCU…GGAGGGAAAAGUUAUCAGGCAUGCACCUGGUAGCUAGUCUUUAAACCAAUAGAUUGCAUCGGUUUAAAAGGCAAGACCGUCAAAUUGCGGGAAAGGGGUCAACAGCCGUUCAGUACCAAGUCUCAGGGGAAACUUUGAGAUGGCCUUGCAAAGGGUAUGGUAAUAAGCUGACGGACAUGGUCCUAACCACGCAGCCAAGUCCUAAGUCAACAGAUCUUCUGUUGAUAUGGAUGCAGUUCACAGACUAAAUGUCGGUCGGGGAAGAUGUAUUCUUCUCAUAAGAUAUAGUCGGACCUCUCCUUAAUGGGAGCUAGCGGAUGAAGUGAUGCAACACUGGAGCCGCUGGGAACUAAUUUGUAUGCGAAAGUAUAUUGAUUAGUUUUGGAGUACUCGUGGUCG;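 also: selection with 25 µg/mL kanamycin versus none on LB agar overnight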
Details: 30 °C
Reported self-splicing fitness (ln) by item:

Given item GAAUAGCAAUAUUACGGGAA , the value recorded as its self-splicing fitness (ln) is -2.97

Given item AUACAGCAAUAUUACGAGGC , the value recorded as its self-splicing fitness (ln) is -2.99

Given item CAUGAGCAAUAUUACGUGAC , the value recorded as its self-splicing fitness (ln) is -3.75

Given item CAUUAGCAAUAUUACGUCAG , the value recorded as its self-splicing fitness (ln) is -0.381

Given item AUUUAGCAAUAUUACGAUGG , the value recorded as its self-splicing fitness (ln) is -2.89

Given item GAUUAGCAAUAUUACGGCUA , the value recorded as its self-splicing fitness (ln) is -0.867

Given item AGCGAGCAAUAUUACGCAGU , the value recorded as its self-splicing fitness (ln) is -4.48

Given item GGUAAGCAAUAUUACGGCCG , the value recorded as its self-splicing fitness (ln) is -0.712

Given item CCAAAGCAAUAUUACGCGCA , the value recorded as its self-splicing fitness (ln) is -3.48

Given item ACGCAGCAAUAUUACGUCAG , the value recorded as its self-splicing fitness (ln) is -2.75

All values here come from the supplement of paper PMC7877785.
